Numbers sourced from ChEMBL document CHEMBL3507680.

protocol: Human HepG2 cell viability assay in 384 well format
Format: toxicity, cell-based
Design: dose 125 nL, time 70.5 hour; concentration not given beside the values
conditionNotes: HepG2 cells, read-out: Inhibition
quantityKind: cytotoxicity at 70.5 h (%)
Just the number please, in %, no unit attached.

[ask] Record request: cytotoxicity at 70.5 h value, item `c1cncc(OC[C@]23COC[C@H]2CN(Cc2cccs2)C3)c1`
[reply] -7.3

[ask] Record request: cytotoxicity at 70.5 h value, item N#Cc1nccnc1NC1CCN(c2c(F)cccc2F)C1 (stereo not drawn)
[reply] -4.72

[ask] Record request: cytotoxicity at 70.5 h value, item `CC(=O)Nc1cccc(OCCNC(=O)N(C)Cc2ccco2)c1`
[reply] 0.512

[ask] Record request: cytotoxicity at 70.5 h value, item Cc1ccc(OCC(O)CNC(=O)C2(c3ccc(F)cc3)CC2)cc1 (stereo not drawn)
[reply] -7.12

[ask] Record request: cytotoxicity at 70.5 h value, item `CCN(Cc1cc(Cl)ccc1OC)Cc1ncnn1CC`
[reply] 1.58

[ask] Record request: cytotoxicity at 70.5 h value, item COC(CNC(=O)C1CCN(S(C)(=O)=O)CC1)c1ccc(C)s1 (stereo not drawn)
[reply] -12

[ask] Record request: cytotoxicity at 70.5 h value, item `O=C(NCc1ccccn1)[C@@H]1CCO[C@@H]2CCN(Cc3ccoc3)C[C@H]21`
[reply] -1.45

[ask] Record request: cytotoxicity at 70.5 h value, item `CCCc1nc(C)c(C(=O)NS(=O)(=O)c2cccnc2)s1`
[reply] -0.303

[ask] Record request: cytotoxicity at 70.5 h value, item `COCc1ccc(C(=O)N2CCc3c(ncnc3N3CCOCC3)C2)o1`
[reply] -4.54

[ask] Record request: cytotoxicity at 70.5 h value, item `O=C(CN1CCCCCCC1=O)NCc1ccccn1`
[reply] -1.3

[ask] Record request: cytotoxicity at 70.5 h value, item `Cn1cc(CCCN2CCN(C(=O)c3cccc(O)c3)CC2)cn1`
[reply] -3.56

[ask] Record request: cytotoxicity at 70.5 h value, item `O=C(O)c1ccnc(-c2ccnc(N3CCC(F)(F)CC3)n2)c1`
[reply] 21

[ask] Record request: cytotoxicity at 70.5 h value, item `CS(=O)(=O)c1ccc(NC(=O)NC2(c3cccc(F)c3)CC2)cc1`
[reply] -7.54

[ask] Record request: cytotoxicity at 70.5 h value, item `CN(C)C(=O)CNS(=O)(=O)c1cc(Br)ccc1F`
[reply] 2.64

[ask] Record request: cytotoxicity at 70.5 h value, item Cc1n[nH]c(CCC(=O)N2CCOC(Cc3ccc(F)cc3)C2)c1C (stereo not drawn)
[reply] 10.5

[ask] Record request: cytotoxicity at 70.5 h value, item Cn1cnnc1C1CCCN(C(=O)NCCCn2cccn2)C1 (stereo not drawn)
[reply] -2.61

[ask] Record request: cytotoxicity at 70.5 h value, item CCN(C(=O)CCCOC)C(c1ccc(Cl)cc1)c1ccccn1 (stereo not drawn)
[reply] 31.1

[ask] Record request: cytotoxicity at 70.5 h value, item `O=C(c1ccc(-n2cccn2)nc1)N1CCC(c2ccc(O)cc2)CC1`
[reply] -5.83

[ask] Record request: cytotoxicity at 70.5 h value, item `Cc1ccc2c(c1)C1(CCN(C(N)=O)CC1)CN2C(=O)N(C)C`
[reply] -7.46

[ask] Record request: cytotoxicity at 70.5 h value, item `Cn1cnnc1CNC(=O)Nc1ccc(OC2CCC2)c(F)c1`
[reply] -4.19

[ask] Record request: cytotoxicity at 70.5 h value, item `CCc1cnc(N2CCN(Cc3ccno3)CC2)s1`
[reply] -1.37

[ask] Record request: cytotoxicity at 70.5 h value, item O=C(CN1CCC2(CCCN(CCO)C2=O)C1)NCCc1ccccc1 (stereo not drawn)
[reply] 11.6

[ask] Record request: cytotoxicity at 70.5 h value, item CCC(O)CN1CCN(C(=O)c2ccn(C)c(=O)c2)CC1 (stereo not drawn)
[reply] -9.11
